Numbers sourced from paper PMC9911399.

SYSTEM TESTED: T1, RBFOX1 RRM (Homo sapiens, UniProt Q9NWB1 109-208)
T1 sequence: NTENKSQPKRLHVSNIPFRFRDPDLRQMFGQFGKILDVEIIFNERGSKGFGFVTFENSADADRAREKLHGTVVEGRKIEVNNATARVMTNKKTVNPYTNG
ASSAY PROCEDURE: EMSA; HiTS-Eq, 1 nM pool, 10 min; buffer printed only for the single-RNA assays: 10 mM Tris pH 7.5, 150 mM NaCl, 3.4 mM EDTA, 0.001% NP-40, 30 C
CONDITION CONTEXT: tags: His6 N-terminal (pET28a); label: 5' 32P
Whole data set: some 16,000 sequences, median “ka relative to ugcaugu” near 0.0091, cut for the highest 2% near 0.032. The sample holds the highest values, similar sequences and a random draw of the others, so the mix is not that of the screen.
RECORDED ENDPOINT: binding signal

{"BINDER": "UGCUUAA (DNA:RNA) RNA: GGGAGACCGGAAUUCAGAUUGUCCUGCUUAAUUAAAUCCCGUCGUAGCCACCA DNA 1: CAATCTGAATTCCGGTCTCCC DNA 2: TGGTGGCTACGACGGGATT", "binding signal": "0.0138 KA relative to UGCAUGU"}

Next, consider the following binder.
Give a short answer stating reported binding signal for UGCUUGC (DNA:RNA) RNA: GGGAGACCGGAAUUCAGAUUGUCCUGCUUGCUUAAAUCCCGUCGUAGCCACCA DNA 1: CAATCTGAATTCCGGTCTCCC DNA 2: TGGTGGCTACGACGGGATT .
0.088 KA relative to UGCAUGU
